assayed-target: cyclooxygenase (Mus musculus, UniProt P22437)
Construct: A cell suspension containing peritoneal cells from male mice 8-10 weeks old was obtained in a known manner; endogenous in cells; host or cells: mouse peritoneal macrophages (primary, adherent)
Sequence (P22437 27-602): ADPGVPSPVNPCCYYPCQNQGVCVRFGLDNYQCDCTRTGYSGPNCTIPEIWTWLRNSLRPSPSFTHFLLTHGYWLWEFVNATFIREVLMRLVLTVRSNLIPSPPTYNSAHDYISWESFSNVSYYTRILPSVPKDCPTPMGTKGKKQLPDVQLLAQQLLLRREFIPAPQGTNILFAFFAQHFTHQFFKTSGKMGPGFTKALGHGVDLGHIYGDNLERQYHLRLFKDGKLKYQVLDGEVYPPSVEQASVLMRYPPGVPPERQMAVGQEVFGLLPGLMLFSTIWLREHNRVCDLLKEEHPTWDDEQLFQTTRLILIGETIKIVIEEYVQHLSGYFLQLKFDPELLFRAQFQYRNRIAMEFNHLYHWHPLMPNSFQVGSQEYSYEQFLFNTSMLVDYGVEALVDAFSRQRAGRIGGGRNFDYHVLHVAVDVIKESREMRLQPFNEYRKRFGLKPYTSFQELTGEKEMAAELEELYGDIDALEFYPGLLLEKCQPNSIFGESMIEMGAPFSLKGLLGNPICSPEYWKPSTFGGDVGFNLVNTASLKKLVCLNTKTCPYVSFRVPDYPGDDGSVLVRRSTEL
protocol-notes: In vitro cyclooxygenase inhibition, release of 6-keto-PGF1α from zymosan-stimulated peritoneal macrophages
Format: cell-based
particulars: zymosan-stimulated mouse peritoneal macrophage cells, 10^-5 mole/l
Would you mind telling me the reported % inhibition upon release of 6-keto-PGF1α of each entry?
Write the value in % as a bare number.

Consider Cc1ccnc(N2CCN(C3Sc4ccccc4NC3=O)CC2)c1 (stereo not drawn) . Its measured % inhibition upon release of 6-keto-PGF1α is 36

Consider Cc1ccnc(N2CCN(CCCCC3Sc4ccccc4NC3=O)CC2)c1 (stereo not drawn) . Its measured % inhibition upon release of 6-keto-PGF1α is 27

Consider O=C1Nc2ccccc2SC1CCCN1CCN(c2ccc(Cl)cn2)CC1 (stereo not drawn) . Its measured % inhibition upon release of 6-keto-PGF1α is 46

Consider Cc1ccnc(N2CCN(CCCCC3Oc4ccccc4NC3=O)CC2)c1 (stereo not drawn) . Its measured % inhibition upon release of 6-keto-PGF1α is 17

Consider Cc1ccnc(N2CCN(CCCC3Oc4ccccc4NC3=O)CC2)c1 (stereo not drawn) . Its measured % inhibition upon release of 6-keto-PGF1α is 32

Consider Cc1ccnc(N2CCN(CCCC3Sc4ccccc4NC3=S)CC2)c1 (stereo not drawn) . Its measured % inhibition upon release of 6-keto-PGF1α is 0
